target: SMARCA4 (Homo sapiens, UniProt P51532); construct: SMARCA2/SMARCA4 protein degradation selectivity in MV4-11 cells; endogenous in cells; host or cells: MV4-11; assay: SMARCA4 Western blot degradation in MV4-11 cells; format: cell-based; details: MV4-11, MV4-11 cells, 24 h; read-out: SMARCA4 MSD MV411 degradation 24 h: average Dmax %
Sequence (P51532 whole entry): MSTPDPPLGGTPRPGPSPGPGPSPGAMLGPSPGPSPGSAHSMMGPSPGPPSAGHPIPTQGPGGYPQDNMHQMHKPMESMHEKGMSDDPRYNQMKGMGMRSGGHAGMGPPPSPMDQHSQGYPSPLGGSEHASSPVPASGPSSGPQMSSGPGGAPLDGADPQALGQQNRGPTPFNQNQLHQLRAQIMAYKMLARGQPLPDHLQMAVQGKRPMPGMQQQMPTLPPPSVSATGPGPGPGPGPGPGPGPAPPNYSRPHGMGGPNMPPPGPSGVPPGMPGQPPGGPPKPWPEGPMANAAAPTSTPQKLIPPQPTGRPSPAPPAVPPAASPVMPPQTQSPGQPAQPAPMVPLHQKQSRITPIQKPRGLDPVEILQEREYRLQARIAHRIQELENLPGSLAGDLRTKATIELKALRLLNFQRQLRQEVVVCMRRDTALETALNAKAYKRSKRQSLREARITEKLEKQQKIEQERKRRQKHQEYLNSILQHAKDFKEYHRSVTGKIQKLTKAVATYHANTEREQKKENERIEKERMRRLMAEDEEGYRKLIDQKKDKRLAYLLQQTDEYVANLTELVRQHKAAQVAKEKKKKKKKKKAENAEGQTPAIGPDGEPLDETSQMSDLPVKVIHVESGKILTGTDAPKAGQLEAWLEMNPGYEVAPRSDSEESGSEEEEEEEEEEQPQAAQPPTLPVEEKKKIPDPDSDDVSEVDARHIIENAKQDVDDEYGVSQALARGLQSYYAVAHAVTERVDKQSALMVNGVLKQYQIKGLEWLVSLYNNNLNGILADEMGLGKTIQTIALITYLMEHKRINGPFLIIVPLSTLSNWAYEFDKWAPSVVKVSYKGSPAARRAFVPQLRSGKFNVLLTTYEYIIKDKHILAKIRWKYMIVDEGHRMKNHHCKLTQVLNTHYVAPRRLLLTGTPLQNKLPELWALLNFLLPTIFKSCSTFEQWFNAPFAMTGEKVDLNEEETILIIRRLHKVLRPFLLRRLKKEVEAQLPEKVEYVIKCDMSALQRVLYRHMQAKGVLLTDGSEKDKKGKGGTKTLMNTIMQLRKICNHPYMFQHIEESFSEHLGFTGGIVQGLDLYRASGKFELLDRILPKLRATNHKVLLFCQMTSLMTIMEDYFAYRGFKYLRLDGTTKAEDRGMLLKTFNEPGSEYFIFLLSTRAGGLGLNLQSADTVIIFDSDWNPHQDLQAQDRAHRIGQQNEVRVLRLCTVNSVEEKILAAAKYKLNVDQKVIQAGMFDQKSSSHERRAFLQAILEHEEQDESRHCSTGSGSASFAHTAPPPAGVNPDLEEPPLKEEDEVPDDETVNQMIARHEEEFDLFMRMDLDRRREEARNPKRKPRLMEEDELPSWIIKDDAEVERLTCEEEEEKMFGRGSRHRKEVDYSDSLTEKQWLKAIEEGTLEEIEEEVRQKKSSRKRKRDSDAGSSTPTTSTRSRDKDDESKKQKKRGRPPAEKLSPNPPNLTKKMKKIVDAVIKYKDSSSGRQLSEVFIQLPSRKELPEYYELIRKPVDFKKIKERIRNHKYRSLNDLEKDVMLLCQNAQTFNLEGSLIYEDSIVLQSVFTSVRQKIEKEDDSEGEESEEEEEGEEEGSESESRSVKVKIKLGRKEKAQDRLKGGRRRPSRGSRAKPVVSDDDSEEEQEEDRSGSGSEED
Property Measured: Dmax

Record Smiles | Experimental Value
Cc1ncsc1-c1ccc(CNC(=O)[C@@H]2C[C@@H](O)CN2C(=O)[C@@H](NC(=O)N2CC3(CC(N4CCN(c5cnc(N6CCc7[nH]c8nnc(-c9ccccc9O)cc8c7[C@H]6C)nc5)CC4)C3)C2)C(C)(C)C)cc1 | 70 to 90%
C#Cc1ccc(CNC(=O)[C@@H]2C[C@@H](O)CN2C(=O)[C@@H](NC(=O)N2CC3(CC(N4CCC(c5cnc(N6CCN7c8cc(-c9ccccc9O)nnc8NC[C@H]7C6)nc5)CC4)C3)C2)C(C)(C)C)cc1 | > 90%

* * *

target: SMARCA2 (Homo sapiens, UniProt P51531); assay: SMARCA2 Western blot degradation in MV4-11 cells; type: cell-based; design: SMARCA2/SMARCA4 protein degradation selectivity in MV4-11 cells; endogenous in cells; host or cells: MV4-11; details: MV4-11 cells, 24 h; read-out: SMARCA2 MSD MV411 degradation 24 h: Mean external-Abs DC50
Sequence (P51531 whole entry): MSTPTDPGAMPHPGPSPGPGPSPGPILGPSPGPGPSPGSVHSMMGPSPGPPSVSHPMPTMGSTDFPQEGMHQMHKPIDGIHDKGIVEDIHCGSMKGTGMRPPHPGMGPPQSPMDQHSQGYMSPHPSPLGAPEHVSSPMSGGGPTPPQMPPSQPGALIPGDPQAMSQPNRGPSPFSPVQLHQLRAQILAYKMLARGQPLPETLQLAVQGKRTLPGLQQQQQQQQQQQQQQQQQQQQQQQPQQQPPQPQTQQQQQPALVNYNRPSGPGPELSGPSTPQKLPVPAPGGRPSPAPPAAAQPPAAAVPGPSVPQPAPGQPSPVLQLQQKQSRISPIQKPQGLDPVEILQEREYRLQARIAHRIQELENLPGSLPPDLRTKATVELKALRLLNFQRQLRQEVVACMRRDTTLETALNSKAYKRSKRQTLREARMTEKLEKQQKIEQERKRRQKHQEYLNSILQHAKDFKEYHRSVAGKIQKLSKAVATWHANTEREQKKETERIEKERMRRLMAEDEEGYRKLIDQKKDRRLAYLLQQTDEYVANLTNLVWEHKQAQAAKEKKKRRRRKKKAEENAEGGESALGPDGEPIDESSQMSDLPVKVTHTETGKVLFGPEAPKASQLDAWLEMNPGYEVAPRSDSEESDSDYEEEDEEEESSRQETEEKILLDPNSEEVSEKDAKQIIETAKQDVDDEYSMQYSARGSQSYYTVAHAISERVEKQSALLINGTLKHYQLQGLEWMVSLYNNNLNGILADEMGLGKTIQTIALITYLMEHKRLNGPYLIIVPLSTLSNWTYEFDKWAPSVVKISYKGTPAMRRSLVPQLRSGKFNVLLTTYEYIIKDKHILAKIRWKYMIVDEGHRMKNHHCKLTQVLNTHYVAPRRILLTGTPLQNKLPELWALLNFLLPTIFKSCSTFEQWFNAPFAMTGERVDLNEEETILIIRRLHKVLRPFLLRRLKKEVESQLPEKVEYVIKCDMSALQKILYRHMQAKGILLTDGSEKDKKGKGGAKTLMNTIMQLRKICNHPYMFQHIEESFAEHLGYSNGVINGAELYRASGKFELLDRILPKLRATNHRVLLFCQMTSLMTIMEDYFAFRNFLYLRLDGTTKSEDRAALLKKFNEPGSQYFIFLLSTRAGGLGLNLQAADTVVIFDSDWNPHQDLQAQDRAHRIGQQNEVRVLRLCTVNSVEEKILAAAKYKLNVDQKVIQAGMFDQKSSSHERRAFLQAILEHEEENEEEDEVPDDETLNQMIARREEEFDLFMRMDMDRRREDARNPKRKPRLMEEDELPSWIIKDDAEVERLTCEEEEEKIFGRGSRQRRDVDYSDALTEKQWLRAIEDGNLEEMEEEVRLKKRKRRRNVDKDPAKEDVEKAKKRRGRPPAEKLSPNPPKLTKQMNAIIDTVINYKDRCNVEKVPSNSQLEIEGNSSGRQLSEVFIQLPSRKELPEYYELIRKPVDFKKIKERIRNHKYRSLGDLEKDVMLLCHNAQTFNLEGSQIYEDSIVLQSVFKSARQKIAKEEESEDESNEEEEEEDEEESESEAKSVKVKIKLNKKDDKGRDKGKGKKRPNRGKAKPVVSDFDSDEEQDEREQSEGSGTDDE
Property Measured: DC50

Molecule | Experimental Value
C#Cc1ccc(CNC(=O)[C@@H]2C[C@@H](O)CN2C(=O)[C@@H](NC(=O)C2CCC3(CC2)CC(N2CCC(N4CC(C(=O)N5CCN6c7cc(-c8ccccc8O)nnc7NC[C@H]6C5)C4)CC2)C3)C(C)(C)C)cc1 (stereo partly drawn) | 1 to 10 nM
C#Cc1ccc(CNC(=O)[C@@H]2C[C@@H](O)CN2C(=O)[C@@H](NC(=O)[C@H]2CCC3(CC2)C[C@H](N2CCC(c4cnc(N5CCN6c7cc(-c8ccccc8O)nnc7NC[C@H]6C5)nc4)CC2)C3)C(C)(C)C)c(Cl)c1 (single isomer, unassigned) [I-98] | 1 to 10 nM
C#Cc1ccc(CNC(=O)[C@@H]2C[C@@H](O)CN2C(=O)[C@@H](NC(=O)[C@H]2CC[C@H](CN3CCC(c4cnc(N5CCN6c7cc(-c8ccccc8O)nnc7NC[C@H]6C5)nc4)CC3)CC2)C(C)(C)C)cc1 | 1 to 10 nM
CC(C)C(C(=O)N1C[C@H](O)C[C@H]1C(=O)NCc1ccc(Cl)cc1)c1cc(N2CC3(CC(N4CCC(c5cnc(N6CCN7c8cc(-c9ccccc9O)nnc8NC[C@H]7C6)nc5)CC4)C3)C2)no1 (stereo partly drawn) | > 100 nM
Cc1ncsc1-c1ccc(CNC(=O)[C@@H]2C[C@@H](O)CN2C(=O)[C@@H](NC(=O)[C@H]2CC3(C2)C[C@H](N2CCC(N4CCC(c5ccc6[nH]c7nnc(-c8ccccc8O)cc7c6c5)CC4)CC2)C3)C(C)(C)C)cc1 (single isomer, unassigned) [I-28] | 10 to 100 nM
C#Cc1ccc(CNC(=O)[C@@H]2C[C@@H](O)CN2C(=O)[C@@H](NC(=O)N2CC3(CC(N4CCC(N5CCC(N6CCN7c8cc(-c9ccccc9O)nnc8NC[C@H]7C6)CC5)CC4)C3)C2)C(C)(C)C)cc1 | 1 to 10 nM
C#Cc1ccc(CNC(=O)[C@@H]2C[C@@H](O)CN2C(=O)[C@@H](NC(=O)N2CCC(CN3CCC(N4CCc5[nH]c6nnc(-c7ccccc7O)cc6c5[C@H]4C)CC3)CC2)C(C)(C)C)cc1 | 10 to 100 nM
C#Cc1ccc(CNC(=O)[C@@H]2C[C@@H](O)CN2C(=O)[C@@H](NC(=O)[C@H]2CC3(C2)C[C@H](N2CCN(C(=O)CCN4CCN5c6cc(-c7ccccc7O)nnc6NC[C@H]5C4)CC2)C3)C(C)(C)C)cc1 (stereo partly drawn) [I-275] | 1 to 10 nM
C#Cc1ccc(CNC(=O)[C@@H]2C[C@@H](O)CN2C(=O)[C@@H](NC(=O)N2CC3(CC(N4CCC([C@H]5CC[C@H](N6CCc7[nH]c8nnc(-c9ccccc9O)cc8c7[C@H]6C)CC5)CC4)C3)C2)C(C)(C)C)cc1 | > 100 nM
